Data provenance is ChEMBL document CHEMBL4483862.

tested on: Plasmodium berghei; assay: Luciferase/luciferin-expressing antifolate-resistant parasites were used to infect a culture of HepG2 cells that were pre-incubated with compounds. Infected hepatocytes emit light due to the luciferase reaction. Assay results are presented as the percent inhibition of light emission compared to control. […]; type: functional; conditions: sporozoite, FFLUC_HILL_SLOPE 0.433, FFLUC_R_SQUARED 0.0165, read-out: LUCIFERASE INFECTION ASSAY - IC50
pIC50: −log10 of the molar value.
Experimental readout: pIC50

Looking up N#C/C(=C\N1CCN(Cc2ccccc2)CC1)S(=O)(=O)c1ccccn1 , I see its pIC50 listed as < 5.05

###

test system: Plasmodium berghei; assay: Luciferase/luciferin-expressing antifolate-resistant parasites were used to infect a culture of HepG2 cells that were pre-incubated with compounds. Infected hepatocytes emit light due to the luciferase reaction. Assay results are presented as the percent inhibition of light emission compared to control. […]; assay type: functional; details: sporozoite, PBLUC_HILL_SLOPE 2.39, PBLUC_R_SQUARED 0.602, read-out: LUCIFERASE INFECTION ASSAY - IC50
Experimental readout: pIC50
// returns pIC50 (minus log10 of molar concentration), number only

pIC50 for Plasmodium berghei with input Cc1nc(-c2ccc3c(c2)CCN3C(=O)C2(C)Cc3ccccc3C(=O)O2)cs1 (stereo unspecified) equals 5.35

###

What IC90 was measured for each of the following?
test system: Plasmodium berghei; test: Luciferase/luciferin-expressing antifolate-resistant parasites were used to infect a culture of HepG2 cells that were pre-incubated with compounds. Infected hepatocytes emit light due to the luciferase reaction. Assay results are presented as the percent inhibition of light emission compared to control. […]; type: functional; details: sporozoite, read-out: LUCIFERASE INFECTION ASSAY - IC90

For reference, reported IC90 for CC(C)c1ccc(-c2ccc3nnc(-c4ccc5nccnc5c4)n3c2)cc1 stands at > 10 µM

Per the record, O=c1cc(CNc2ccccc2N2CCCCC2)nc2sccn12 has IC90 of > 10 µM

Field IC90 (entry Cc1nc(NCCNc2cnccn2)c2c(-c3cccs3)csc2n1 ) reads 5.98 µM

# compound Cc1ccc2nc(NC(=O)c3ccc(C#N)cc3)c(C(=O)NC3CCCCC3)n2c1 ; its IC90 = > 8.22 µM

Record COc1cccc(-c2nc3ccc(NC(=O)Nc4ccc(Cl)c(C(F)(F)F)c4)cn3n2)c1 , field IC90: 9.24 µM

Record CCOc1cc(C(=O)N/N=C/c2c(C)[nH]c3ccccc23)cc(OCC)c1OCC , field IC90: > 10 µM

IC90 reported for this compound O=C(NC(=S)NN(Cc1ccccc1)c1ccccc1)C12CC3CC(CC(C3)C1)C2 : > 10 µM

For Fc1cccc(Nc2cc3c(cn2)ncn3Cc2ccccc2)c1 the compound record lists IC90 as > 10 µM

// IC90 lookup, compound = CN(C)c1cccc(-c2cnc3cnc(-c4ccncc4)cn23)c1 , result: > 10.5 µM

Entry under test: Oc1cc2c(cc1CN1CCN(Cc3ccc4c(c3)OCO4)CC1)CCC2 . Its IC90 was > 10 µM

The recorded IC90 for N=C1N/C(=N/NC(=O)c2ccc(CN3C(=O)c4cccc5cccc3c45)cc2)c2ccccc21 is > 10 µM

###

test system: Plasmodium berghei; test: Luciferase/luciferin-expressing antifolate-resistant parasites were used to infect a culture of HepG2 cells that were pre-incubated with compounds. Infected hepatocytes emit light due to the luciferase reaction. Assay results are presented as the percent inhibition of light emission compared to control. […]; format: functional; settings: sporozoite, PBLUC_HILL_SLOPE 8.74, PBLUC_R_SQUARED 0.3, read-out: LUCIFERASE INFECTION ASSAY - IC50
Experimental readout: IC50 (µM)
I only need the number, in µM, no unit after it.

# IC50 of CC(C)Oc1ccc(Nc2cc3c(cn2)cc(-c2cccc(C(F)(F)F)c2)n3C)cc1 = 4.03

###

tested on: Plasmodium berghei; experiment: Luciferase/luciferin-expressing antifolate-resistant parasites were used to infect a culture of HepG2 cells that were pre-incubated with compounds. Infected hepatocytes emit light due to the luciferase reaction. Assay results are presented as the percent inhibition of light emission compared to control. […]; type: functional; conditions: sporozoite, read-out: LUCIFERASE INFECTION ASSAY - IC90
Experimental readout: IC90

Lab book: IC90 of COc1ccc(CNc2ccc3ncc(-c4ccc(Cl)cc4)n3n2)cc1 noted as 4.67 µM

Looking up CC(=O)c1ccc(-c2ccc(C(=O)N3CCc4sccc4C3)o2)cc1 , I see its IC90 listed as > 10 µM

Given item CNc1nc2cnc(Nc3cccc(OC(F)(F)F)c3)cc2n1CCOC , the value recorded as its IC90 is > 10 µM

Given item Cc1ccc(NC(=O)CSc2ccc(Nc3ccc(C)cc3)nn2)cc1 , the value recorded as its IC90 is > 9.05 µM

The recorded IC90 for O=c1cc(-c2ccccc2)[nH]c2cc(-c3cccs3)nn12 is > 11.2 µM

Per the records, this compound ( COc1ccc(CCn2nc(C(=O)NC3CC3)c3c2CCN(C(=O)c2cc4cc(C)ccc4[nH]2)C3)cc1 ) has IC90 equal to > 6.63 µM

In plain terms, O=C1C(Cl)=C(Nc2ccccc2)C(=O)c2ccccc21 has a documented IC90 of > 11.6 µM

Sure, the documented IC90 for C(=N\Nc1ncnc2sc(-c3ccccc3)cc12)/c1sc(N2CCCCC2)nc1-c1cccs1 is 1.21 µM

Briefly, IC90 measured for O=C(c1ccc2nc[nH]c2c1)N1CCc2nc(NCc3cccc(Oc4ccccc4)c3)ncc2C1 : > 6.92 µM

The reported IC90 of the compound CC(Oc1ccc(Cl)cc1Cl)C(=N)NO (stereo not given) was > 13.2 µM

###

tested on: Plasmodium berghei; test: Luciferase/luciferin-expressing antifolate-resistant parasites were used to infect a culture of HepG2 cells that were pre-incubated with compounds. Infected hepatocytes emit light due to the luciferase reaction. Assay results are presented as the percent inhibition of light emission compared to control. […]; assay type: functional; conditions: sporozoite, read-out: LUCIFERASE INFECTION ASSAY - IC90
Kindly supply the reported IC90 values for the records listed here.

Value of measured IC90 for the entry COc1ccc(C(=O)/C=C/c2cccc3cccnc23)cc1Br : > 10 µM

Lab note: measured IC90 of C/C=C/c1ccc(OCC(=O)NCc2ccc(S(N)(=O)=O)cc2)c(OC)c1 was > 10 µM

Recorded result, c1ccn2c(Sc3ncnc4ccsc34)nnc2c1 , IC90: > 10 µM

Measured IC90 of CCN(CC)CCn1c(NC(=O)c2cc3c(C)nn(-c4ccc(Cl)cc4)c3s2)nc2ccccc21 : > 10 µM

Entry under test: COc1cc2c(cc1/C=C/C(=O)N(Cc1nc(=O)c3ccccc3[nH]1)CC1CCCO1)OC(C)C2 (stereo not given) . Its IC90 was > 10 µM

The compound identified as CCCCCC1C/C(=C\c2ccc(C(F)(F)F)cc2)C(=O)/C(=C/c2ccc(C(F)(F)F)cc2)C1 (stereo not given) registered its IC90 at > 6.87 µM

# IC90 of CCOC(=O)c1cnn(-c2ccc(Cc3ccc(-n4ncc(C(=O)OCC)c4C)cc3)cc2)c1C = > 6.98 µM

IC90 measured on CCN(CC)CCNC(=O)c1ccc(NC(=O)c2cccc(S(=O)(=O)N3CCc4ccccc43)c2)cc1 = > 10 µM

The compound listed as Cc1cccc(NC(=S)Nc2cn(-c3ccccc3)nc2-c2ccc(Br)cc2)c1C has a reported IC90 of > 10 µM

// sample O=C(c1cccc(C(F)(F)F)c1)N1CCc2c([nH]c3ccccc23)C1C(F)(F)F (stereo not given) , its IC90 was > 8 µM

Query CCOC(=O)c1ccc(-n2c(C)cc(/C=C(\C#N)c3nc4ccccc4[nH]3)c2C)cc1 yields IC90 of > 10 µM

Reported IC90 ( Cc1ccc(C(=O)c2c3c4sc5ccccc5n4c(-c4ccc(C)cc4)nc-3[n+](-c3ccccc3)c2O)cc1 ) = > 10 µM

compound CCC(Sc1nnc(-c2ccccc2F)[nH]1)C(=O)Nc1ccccc1 (stereo not given) , IC90 observed: > 10 µM

Item: O=C(c1cc2c(=O)n3ccccc3nc2s1)N(c1ccccn1)C1CCCCC1 | IC90: > 10 µM

The reported IC90 of the compound c1cc(NCCN2CCOCC2)ncc1-c1cn2c(-c3ccc4c(c3)OCO4)cnc2cn1 was > 7.42 µM

For record CNc1ccccc1C(C)(C)c1cc(NC(=O)C2CCCC2)sc1C(=O)c1ccc(Cl)cc1 the listed IC90 is > 10 µM

Form: compound = Cc1ccc(C(=O)Nc2nc3ccccc3[nH]2)cc1NC(=O)c1ccco1 ; IC90 = > 10 µM

For reference, reported IC90 for Cc1cc(Oc2ccc(-c3ccccc3)cc2)nc(C)n1 stands at > 10 µM

Record COc1ncccc1CNC(=O)C1=COCCO1 . Reported IC90: > 10 µM

The compound listed as Cc1nc(Cc2nc(-c3ccc(S(C)(=O)=O)cc3)cs2)cs1 has a reported IC90 of > 10 µM

Form field IC90, entry O=C(Nc1cccnc1)N1CCc2nc(Nc3cc(Cl)cc(Cl)c3)ncc2C1 : > 7.95 µM

// sample CNS(=O)(=O)c1ccc(NC(=O)c2ccc3[nH]c(C)c(C)c3c2)cc1 , its IC90 was > 10 µM

The recorded IC90 for entry COc1ccc(CCN2C(=O)N(C(C)C)C(=O)C23CCN(Cc2ccc(Cl)cc2)CC3)cc1 equals > 7.02 µM

Per the records, this compound ( CCc1cccc(Nc2nc3ccccc3s2)c1 ) has IC90 equal to > 10 µM

Memo: O=C(COc1ccccc1SCc1ccc(Cl)cc1)NNC(=O)c1cccc(C(F)(F)F)c1 , reported IC90: > 6.67 µM
